experiment: AUC(0 to t) in Sprague-Dawley rat at 25 mg/kg, po measured up to 48 hrs by LC-MS/MS analysis; format: ADME, organism-based; design: route oral, dose 25 mg/kg, time <=48; details: in vivo
READOUT: AUC(0-t) at 48 h (µg·h/mL)

INSERT INTO measurements (smiles_structure, unit_abbreviation, recorded_value) VALUES
  ('O=C(O)c1ccc2c(c1)nc(Nc1cccc(Cl)c1)c1ccncc12', 'µg·h/mL', 38.9),
  ('O=C(NCCO)c1ccc2c(c1)nc(Nc1cccc(Cl)c1)c1ccncc12', 'µg·h/mL', 40.5);

====

experiment: Tmax in Sprague-Dawley rat at 25 mg/kg, po measured up to 48 hrs by LC-MS/MS analysis; type: ADME, organism-based; settings: in vivo
READOUT: Tmax (h)

INSERT INTO assay_data (smiles_structure, unit_abbreviation, recorded_value) VALUES
  ('O=C(NCCO)c1ccc2c(c1)nc(Nc1cccc(Cl)c1)c1ccncc12', 'h', 2.33),
  ('O=C(O)c1ccc2c(c1)nc(Nc1cccc(Cl)c1)c1ccncc12', 'h', 2);

====

experiment: MRT(0 to infinity) in Sprague-Dawley rat at 25 mg/kg, po measured up to 48 hrs by LC-MS/MS analysis; type: ADME, organism-based; conditions: in vivo
READOUT: MRT inf (h)

INSERT INTO results (compound, recorded_value) VALUES
  ('O=C(NCCO)c1ccc2c(c1)nc(Nc1cccc(Cl)c1)c1ccncc12', 6.26),
  ('O=C(O)c1ccc2c(c1)nc(Nc1cccc(Cl)c1)c1ccncc12 [SILMITASERTIB]', 6.52);

====

assay: Clearance in Sprague-Dawley rat at 25 mg/kg, po measured up to 48 hrs by LC-MS/MS analysis; assay type: ADME, organism-based; conditions: in vivo
READOUT: CL/F (mL/min/kg)

INSERT INTO measurements (smiles_structure, recorded_value) VALUES
  ('O=C(NCCO)c1ccc2c(c1)nc(Nc1cccc(Cl)c1)c1ccncc12', 10),
  ('O=C(O)c1ccc2c(c1)nc(Nc1cccc(Cl)c1)c1ccncc12', 10.5);

====

experiment: Half life in Sprague-Dawley rat at 25 mg/kg, po measured up to 48 hrs by LC-MS/MS analysis; assay type: ADME, organism-based; conditions: in vivo
READOUT: half-life (h)

INSERT INTO assay_data (compound, recorded_value) VALUES
  ('O=C(O)c1ccc2c(c1)nc(Nc1cccc(Cl)c1)c1ccncc12 [SILMITASERTIB]', 5.82),
  ('O=C(NCCO)c1ccc2c(c1)nc(Nc1cccc(Cl)c1)c1ccncc12', 6.67);

====

assay: Cmax in Sprague-Dawley rat at 25 mg/kg, po measured up to 48 hrs by LC-MS/MS analysis; assay type: ADME, organism-based; parameters: route oral, dose 25 mg/kg, time <=48; details: in vivo
READOUT: Cmax (ng/mL)

INSERT INTO results (compound, readout, unit_abbreviation, recorded_value) VALUES
  ('O=C(NCCO)c1ccc2c(c1)nc(Nc1cccc(Cl)c1)c1ccncc12', 'Cmax', 'ng/mL', 7020),
  ('O=C(O)c1ccc2c(c1)nc(Nc1cccc(Cl)c1)c1ccncc12 [SILMITASERTIB]', 'Cmax', 'ng/mL', 6790);
